# Tested on: TK-10 renal
# assay_summary: NCI tumour cell line growth inhibition, 48 h
endpoint: TGI

Form entry - test system: TK-10 renal; read-out: TGI; compound: `CCOP(=O)(/C=C\n1cc(C)c(=O)[nH]c1=O)OCC`
> 100 µM

Then what about the compound `Cc1ccc([S@](=O)c2occc2C=O)cc1` ?
18.6 µM

Can you check CCOC(=O)CCC(NC(=O)OCc1ccccc1)C(=O)NC(CCC(=O)OCC)C(=O)NC(CCC(=O)OCC)C(=O)NC(CCC(=O)OCC)C(=O)NC(CCC(=O)OCC)C(=O)NC(CCC(=O)OCC)C(=O)NC(CCC(=O)OCC)C(=O)OCC (stereo not given) next?
> 100 µM

Same for O=C1CCCCCCCCCCC1CN1CCCC1 (stereo not given)
> 100 µM

Moving on to the next compound: COP(=O)(OC)C(Cc1cn(C(C)=O)c2ccccc12)C(=O)O (stereo not given)
> 100 µM

***
State its TGI on TK-10 renal: COc1ccc2c3c1OC1C(=O)C=CC4(CC2)N(C)CCC314 (stereo not given)
> 100 µM

Check `C/C=C/c1cc(=O)c([C@@H]2OC(=O)c3cc(OC)cc(OC)c32)co1` too.
> 100 µM

Now consider `COc1cc2nc(N3CCCC3)nc(NCc3ccccc3)c2cc1OC` and answer again.
3.71 µM

Here is the next compound: CC1=C(C(=O)Nc2ccc3n[nH]c(C)c3c2)C(c2ccc(C(F)(F)F)cc2)CC(=O)N1 (stereo not given)
> 25 µM

Record: `Cc1cc([N+](=O)[O-])c(NS(=O)(=O)c2cccc(C(=O)O)c2)cc1-c1cccnc1`
> 100 µM

###

Here the recorded TGI is given for each entry.
# Tested on: SR leukemia
# assay_summary: NCI tumour cell line growth inhibition, 48 h

Some solved entries appear below for comparison.
Fill in the blank: the reported TGI of `COc1c(O)c2c3c(cc(C)cc3c1C(C)C)OC2` is ____.
> 100 µM

Same question for `CC1=C(c2cccc(O)c2)[C@H](c2ccc(OCCN3CC(CF)C3)cc2)Oc2ccc(O)cc21` please.
36.2 µM

Moving on to the next compound: O=C1C=CC(=O)C2=C1[C@@H](O)C1CC=CC3C(=O)O[C@@H]2C31 (stereo not given in full)
> 100 µM

Please give the result for `Cc1nc(Nc2ccccc2)sc1C(=O)CC(=O)C(=O)Nc1c(C(C)C)cccc1C(C)C` too.
> 100 µM

Now consider `O=C1C(c2ccccc2)=C(O)c2cccc3cccc1c23` .
> 100 µM

***
Can you share its TGI? I mean this compound: `COC(OC)[C@@H]1OC[C@H](n2cnc3c(N)ncnc32)[C@H]1O`
> 100 µM

# iterate: `CCCCCCCC/C=C\CCCCCCC/C=C1\C[C@](/C=C/C(=O)OC)(CO)OC1=O`
> 23.5 µM

Here is the next compound: C=C/C(C)=C\CC1[C@](C)(O)CC[C@H]2C(C)(C)C(=O)CC[C@]12C (stereo not given in full)
66.5 µM

Next: Cc1ccccc1OCC(O)CN1CCN(c2ccc(Cl)cc2)CC1 (stereo not given)
40.1 µM

What about this compound? Nc1ncnc2c1N=C(c1ccc3c(c1)OCO3)CC(c1ccc([N+](=O)[O-])cc1)N2 (stereo not given)
67.9 µM

###

# System: ACHN renal
# assay_summary: NCI tumour cell line growth inhibition, 48 h
A collection of molecules and their measured TGI

Returns the measured TGI for the input molecule. Input: `COC(OC)[C@@H]1OC[C@H](n2cnc3c(N)ncnc32)[C@H]1O`
> 100 µM

New cases:
Can you share its TGI? I mean this molecule: `OCCO/N=C1\C(c2c(O)[nH]c3ccccc23)=Nc2ccccc21`
> 100 µM

What do you get for C[C@@H]1[C@H](C)N1CC(O)Cn1ccnc1[N+](=O)[O-] (stereo not given in full) ?
> 100 µM

One more molecule: COc1ccc2c(c1)NC1=C(C(=O)OC1)C2c1cc(OC)c2c(c1)OCO2 (stereo not given)
> 100 µM

###

# Tested on: NCI-H226 lung
# assay_summary: NCI tumour cell line growth inhibition, 48 h
Let's look at some molecules and their measured TGI.

Which measured TGI belongs to `C/C(O)=C(/C=N/C(=S)Nc1ccc(S(N)(=O)=O)cc1)C(=O)Nc1ccccc1C` , tested on NCI-H226 lung?
> 100 µM

Field entry: `COc1cc2c(cc1OC)[C@H](C)N1CCc3cc(OC)c(OC)cc3[C@@H]1C2`
> 100 µM

Input `CC1(C)N/C(=C\C=O)C(C)(C)N1O`
> 100 µM

Repeat for the following molecule: NNC(=O)C1CCC(=O)N1S(=O)(=O)c1ccccc1 (stereo unspecified)
> 100 µM

Note, next up: `CCNC(=S)N=Nc1c(O)[nH]c2ccc([N+](=O)[O-])cc12`
> 100 µM

---
Find the measured TGI: item `COc1c(O)c(C=O)c2c(O)c(-c3c(C)cc4c(C(C)C)c(OC)c(O)c(C=O)c4c3O)c(C)cc2c1C(C)C` , target or system NCI-H226 lung.
9.69 µM

What do you have for `Cc1cccc(Nc2nn3c(=O)c4c5c(sc4nc3s2)CCCC5)c1` ?
> 100 µM

Now consider `CSCSSC` and answer again.
> 100 µM

###

Consider the following compounds and their measured TGI readings.
# System: U251 CNS
# assay_summary: NCI tumour cell line growth inhibition, 48 h

Some compounds with known TGI results, for comparison:
What value of TGI has been recorded for this entry: C#CC#CC#CC#CC#CC#CC#CC#CCC1OCC(COC(=O)O[C@@H](C(=O)O[C@H]2C[C@@]3(O)[C@@H](OC(=O)c4ccccc4)[C@@H]4[C@]5(OC(C)=O)CO[C@@H]5C[C@H](O)[C@@]4(C)C(=O)[C@H](OC(C)=O)C(=C2C)C3(C)C)[C@@H](NC(=O)c2ccccc2)c2ccccc2)O1 (some centres undefined)
> 33.3 µM

Same thing, different compound: `COc1cc2ccnc3c2c(c1OC)-c1coc(SC)c1-3`
> 100 µM

Try COc1ccc(C2=Nc3cc(C)c(C)cc3NC(c3ccccc3)C2)cc1 (centres undefined) next.
> 100 µM

Check `COc1cc2c[n+](C)c3c4cc(OC)c(OC(C)C)cc4ccc3c2cc1OC` too.
> 100 µM

Now the compound `COc1ccc2c(CN3CCCC[C@H]3C(=O)O)cc3cc4c(cc3c2c1)OCO4`
5.4 µM

Continuing:
Given the entry `NC(=O)CN(CC(N)=O)C(N)=O` , report its measured TGI.
> 100 µM

Could you do the same for CC(=O)Oc1cc2c(cc1OC(C)=O)OCC(c1ccc(C)cc1)C2 (centres undefined) , please?
38.8 µM

How about this compound: `O=C1Nc2ccc(Br)cc2C1=Nc1cccnc1`
24.8 µM

Follow-up entry: `CCNC(=S)N=Nc1c(O)[nH]c2ccc([N+](=O)[O-])cc12`
> 100 µM

###

# Tested on: M14 melanoma
# assay_summary: NCI tumour cell line growth inhibition, 48 h
endpoint: TGI

Data request, read-out TGI, for `NC(=O)CN(CC(N)=O)C(N)=O`
> 100 µM

// same read-out, input: `CN1CCN(C(=O)C(C)(C)c2ccc(C(=O)Nc3cn4cc(-c5ccncc5)ccc4n3)cc2)CC1`
22.8 µM

What do we get for `Cc1ccc(S(=O)(=O)c2c(COC(=O)c3cccc(C)c3)c(-c3ccccc3)nn2C)cc1` ?
> 100 µM

Please answer likewise for C[C@H](NC(=O)C(Cc1ccccc1)(Cc1ccc(O)cn1)NC(=O)c1ccccc1)c1ccccc1 (stereo partly drawn)
29.4 µM

Input `COc1cc2ccnc3c2c(c1OC)-c1coc(SC)c1-3`
> 100 µM

---
What does the data say about its TGI? Entry: `Cc1cc(NCCCN(C)C)c2ccc3c(ccc4c(NCCCN(C)C)cc(C)nc43)c2n1`
0.397 µM

Another compound to look at: COC1CC(O[C@H]2CC[C@@]3(C)[C@H](CC[C@@H]4[C@@H]3CC[C@]3(C)[C@@H](C5=CC(=O)OC5)[C@@H](OC(C)=O)C[C@]43O)C2)OC(C)C1O (stereo partly drawn)
< 0.0106 µM

What do we get for `COc1cc(OC)c(C/C=C/c2ccccc2)cc1O` ?
38 µM

`Cc1cc([N+](=O)[O-])c(NS(=O)(=O)c2cccc(C(=O)O)c2)cc1-c1cccnc1` , same question.
> 100 µM

// same read-out, input: `O=S(=O)(/C=C/c1ccc(F)cc1)Cc1ccc(CS(=O)(=O)/C=C/c2ccc(F)cc2)cc1`
> 100 µM

// query: `CC1=NN(C(=O)c2ccccc2O)C(=O)/C1=C/c1ccc(O)cc1`
22.4 µM

Same for `O=C(O)CC[C@H](NC(=O)c1ccc(-n2nc3ccc(O)cc3nc2=O)cc1)C(=O)O`
> 100 µM

How about this compound: COc1ccc2c3c1OC1C(=O)C=CC4(CC2)N(C)CCC314 (stereo not drawn)
49.6 µM

Also need O=C1C=CC(=O)C2=C1[C@@H](O)C1CC=CC3C(=O)O[C@@H]2C31 (stereo partly drawn) , thanks.
36 µM

Consider next the compound `COc1ccc2c(c1)C(=O)c1ccc(OC)cc1C2=S` in the same way.
> 100 µM

What do we get for `C=C[C@@H](C)[C@H](NS(=O)(=O)c1ccc(C)cc1)C(=O)OCC` ?
> 100 µM

Another compound to look at: `CC(=C(c1ccccc1)c1ccccc1)N1C(=O)CC(=O)N1C`
> 100 µM

Also check `COc1ccc2c(c1)c(CC(=O)[Se]C)c(C)n2C(=O)c1ccc(Cl)cc1`
> 0.34 µM
